Test system: SNB-19 CNS
Experiment: NCI-60 one-dose screen, 48 h (100 = growth as untreated, 0 = no growth, -100 = all killed)
Conditions: 10 µM unless noted
Compounds without any hit were thinned out: in the full panel of roughly 83,000, 20% have a hit.
Entries annotated with measured growth
Assay Metric: growth (%)

{"Compound": "Cc1csc(Nc2nc(-c3cccc(Cl)c3)nc(C(Cl)(Cl)Cl)n2)n1", "Target Under Test": "SNB-19 CNS", "Readout Unit": "%", "Reported": 39.9}
{"Compound": "CN(C)c1ccc(/C=N/NC(=O)CSc2nc3sc4c(c3c(=O)n2-c2ccccc2)CCCCC4)cc1", "Target Under Test": "SNB-19 CNS", "Readout Unit": "%", "Reported": 48.8}
{"Compound": "COC(=O)CNC(=O)c1ccc(NC(=O)c2[nH]c(C)c(Cl)c2Cl)c(O[C@H]2CCNC2)c1", "Target Under Test": "SNB-19 CNS", "Readout Unit": "%", "Reported": 102}
{"Compound": "CN(C)CCCN(CCC1CCCCC1)CCC1CCCCC1", "Target Under Test": "SNB-19 CNS", "Readout Unit": "%", "Reported": 86.7}
{"Compound": "CCOC(=O)c1c(Nc2nc3ccccc3s2)sc2c1CCC(=O)C2", "Target Under Test": "SNB-19 CNS", "Readout Unit": "%", "Reported": 45.8}
{"Compound": "COC(=O)c1nc(-c2ccccc2)oc1S(=O)(=O)N1CCN(c2ccc(OC)cc2)CC1", "Target Under Test": "SNB-19 CNS", "Readout Unit": "%", "Reported": 97.8}
{"Compound": "CN1CCN(Cc2ccc(NC(=O)c3cncc(C#Cc4c(N)ncc5ccccc45)c3)cc2C(F)(F)F)CC1", "Target Under Test": "SNB-19 CNS", "Readout Unit": "%", "Reported": -82}
{"Compound": "CCOC(=O)C1=C(c2ccccc2)N=C2SC=C(c3cccc([N+](=O)[O-])c3)N2C1c1ccc(O)cc1 (stereo unspecified)", "Target Under Test": "SNB-19 CNS", "Readout Unit": "%", "Reported": 97}
{"Compound": "Cc1ccc(C(=O)Nc2ccc(CN3CCN(C)CC3)c(C(F)(F)F)c2)cc1C#Cc1cnc(N)c2ccccc12", "Target Under Test": "SNB-19 CNS", "Readout Unit": "%", "Reported": -66.1}
{"Compound": "CC(C)(C#N)c1cc(C(=O)Nc2cc(Nc3ncccc3-c3ncnc4nc[nH]c34)ccc2F)cc(C(F)(F)F)c1", "Target Under Test": "SNB-19 CNS", "Readout Unit": "%", "Reported": 71.2}
{"Compound": "CC(=O)c1c(/C=C/c2ccc(C)cc2)c2ccccc2[nH]c1=O", "Target Under Test": "SNB-19 CNS", "Readout Unit": "%", "Reported": 73.5}

---

Test system: SF-539 CNS
Assay: NCI-60 one-dose screen, 48 h (100 = growth as untreated, 0 = no growth, -100 = all killed)
Settings: 10 µM unless noted
Compounds without any hit were thinned out: in the full panel of roughly 83,000, 20% have a hit.
# note: boundary value 40% maps to No; growth below it maps to Yes

{"Structure Smiles": "O=C(/C=C/c1ccc(Cl)cc1)c1ccc(Nc2ccnc3cc(Cl)ccc23)cc1", "Assigned Category": "No"}
{"Structure Smiles": "C=CC(=O)Nc1ccc2ncnc(Nc3cccc(NS(=O)(=O)CCC)c3Cl)c2c1", "Assigned Category": "No"}
{"Structure Smiles": "O=C(O)c1nn(-c2ccc(Cl)cc2)nc1N1CCCC1", "Assigned Category": "No"}
{"Structure Smiles": "CS(=O)(=O)c1cccc(Nc2ncc3cc(-c4ccccc4Cl)ccc3n2)c1", "Assigned Category": "Yes"}
{"Structure Smiles": "CSc1nc(CC(C)C)c(C#N)c(=O)n1C", "Assigned Category": "No"}
{"Structure Smiles": "O=C(Nc1ccc(Oc2cccc(F)c2)c(Cl)c1)c1cnccn1", "Assigned Category": "Yes"}

---

Test system: SK-MEL-5 melanoma
Assay: NCI-60 one-dose screen, 48 h
Details: 10 µM unless noted
Method: Growth inhibition of the SK-MEL-5 human tumor cell line is measured as a screen for anti-cancer activity. Cells are grown in 96 well plates and exposed to the test compound for 48 hours. Compounds are tested at a single concentration, which is 10^-5 M for most compounds. The reported endpoint is percent growth (GI% or GIPRCNT), where numbers from 0 - 100% represent growth inhibition, and numbers from -100% - 0 represent cell death. For example, a value of 40 represents 60% growth inhibition. […]
Compounds without any hit were thinned out: in the full panel of roughly 83,000, 20% have a hit. Activity calls are given as the source filed them. How the source made its calls: active means growth percent below 10; inactive means the rest.
Possible outcomes: TRUE for active, FALSE for inactive

{"Compound": "O=C(O)c1nn(-c2ccc(Cl)cc2)nc1N1CCCC1", "Target Under Test": "SK-MEL-5 melanoma", "Assigned Category": "FALSE"}
{"Compound": "O=C(CSc1nnc(-c2cc(-c3ccc(Cl)cc3)nc3ccccc23)n1-c1ccccc1)Nc1ccc(Cl)cc1", "Target Under Test": "SK-MEL-5 melanoma", "Assigned Category": "FALSE"}
{"Compound": "CC(CN)[C@@H]1CC[C@]2(CO)CC[C@]3(C)[C@H](CC[C@@H]4[C@@]5(C)CCC(NCCO)C(C)(C)[C@@H]5CC[C@]43C)[C@@H]12 (some centres undefined)", "Target Under Test": "SK-MEL-5 melanoma", "Assigned Category": "FALSE"}
{"Compound": "O=C(/C=C/c1cccc([N+](=O)[O-])c1)c1ccc(Nc2nc(Nc3ccc(F)cc3)nc(Nc3ccc(Cl)cc3)n2)cc1", "Target Under Test": "SK-MEL-5 melanoma", "Assigned Category": "FALSE"}
{"Compound": "O=C(Nc1ncc(Cc2ccc(Cl)cc2)s1)C1=NCCCCN1", "Target Under Test": "SK-MEL-5 melanoma", "Assigned Category": "FALSE"}
{"Compound": "CCCCCCCCOC(=O)c1c(C)[nH]c(/C=C2\\N=C(c3ccc[nH]3)C=C2OC)c1C", "Target Under Test": "SK-MEL-5 melanoma", "Assigned Category": "TRUE"}
{"Compound": "CCOC(=O)/C=C1\\S/C(=N\\Nc2cc(=O)[nH]c3ccc(OC)cc23)N(c2ccccc2)C1=O", "Target Under Test": "SK-MEL-5 melanoma", "Assigned Category": "FALSE"}
{"Compound": "CC(C)(C)n1cc(-c2ccnc(NCCNS(=O)(=O)c3cccc4ccccc34)c2)c(-c2cccc(O)c2)n1", "Target Under Test": "SK-MEL-5 melanoma", "Assigned Category": "FALSE"}
{"Compound": "C/C(=C(\\c1ccc(OCCCN(C)C)cc1)c1ccc(OC(=O)Cc2ccccc2)cc1)c1ccc(Cl)cc1", "Target Under Test": "SK-MEL-5 melanoma", "Assigned Category": "FALSE"}
{"Compound": "CC(=O)CC(=O)c1ccccc1.[Cu+2]", "Target Under Test": "SK-MEL-5 melanoma", "Assigned Category": "FALSE"}
{"Compound": "COc1ccc(/C=C2/CCc3cc4ccc(OC)cc4[o+]c32)c(O)c1", "Target Under Test": "SK-MEL-5 melanoma", "Assigned Category": "FALSE"}
{"Compound": "CN(CCNc1ccc(C(=N)N)cc1)c1ccc(C(=N)N)cc1", "Target Under Test": "SK-MEL-5 melanoma", "Assigned Category": "FALSE"}
{"Compound": "COc1cc(/C=C2\\C(=O)N(CCOc3cc(O)c4c(=O)cc(-c5ccccc5)oc4c3)c3ccccc32)cc(OC)c1O", "Target Under Test": "SK-MEL-5 melanoma", "Assigned Category": "FALSE"}
{"Compound": "CCCCCCC/C=N/NC(=O)c1ccc(-n2cc(-c3ccccc3)nn2)cc1", "Target Under Test": "SK-MEL-5 melanoma", "Assigned Category": "FALSE"}
{"Compound": "COc1cccc(-c2nn(-c3ccccc3)cc2-c2ccnc(-c3cccnc3)c2)c1", "Target Under Test": "SK-MEL-5 melanoma", "Assigned Category": "FALSE"}
{"Compound": "COC(=O)[C@H](C)NC(=O)c1ccc(NC(=O)c2[nH]c(C)c(Cl)c2Cl)c(OCCN)c1", "Target Under Test": "SK-MEL-5 melanoma", "Assigned Category": "FALSE"}
{"Compound": "N/C(=N\\c1nc2ccccc2s1)NC(=O)Nc1ccccc1", "Target Under Test": "SK-MEL-5 melanoma", "Assigned Category": "FALSE"}
{"Compound": "c1ccc2cc(Cn3cc[n+](Cc4ccc5ccccc5c4)c3)ccc2c1", "Target Under Test": "SK-MEL-5 melanoma", "Assigned Category": "TRUE"}
{"Compound": "C=C(C)[C@@H]1CC[C@]2(C(=O)NC(C)=O)CC[C@]3(C)[C@H](CC[C@@H]4[C@@]5(C)CCCNC(C)(C)[C@@H]5CC[C@]43C)[C@@H]12", "Target Under Test": "SK-MEL-5 melanoma", "Assigned Category": "TRUE"}
